# Test system: OVCAR-3 ovarian
# Assay name: NCI-60 one-dose screen, 48 h
# Assay conditions: 10 µM unless noted
About 83,000 compounds went through this panel and 20% of them were active in at least one assay; those are over-represented in the sample as a whole. Calls of active or inactive are those of the source. How the source made its calls: active means growth percent below 10; inactive means the rest.
Outcome codes: active, inactive

compound=C#Cc1cc(C(=O)Nc2ccc(CN3CCN(C)CC3)c(C(F)(F)F)c2)ccc1C group_label=inactive
compound=Cc1ccc(S(=O)(=O)Nc2cc(Sc3ccccc3)c(O)c3ccccc23)cc1 group_label=active
compound=COc1ccc(-c2ccc(-c3ccc(C(=N)N)cn3)s2)cc1Cl group_label=active
compound=O=C(Nc1ccccc1C(=O)N/N=C(\c1ccccc1)c1ccccn1)c1ccccc1 group_label=inactive
compound=COc1ccc(/C=C2\COc3ccc(O)c(O)c3C2=O)c(OC)c1OC group_label=active
compound=O=S(=O)(O)c1ccc(N=Nc2ccc(N=Nc3cccc4ccccc34)c(S(=O)(=O)O)c2)cc1 group_label=inactive
compound=OB(O)c1ccsc1-c1nc2ccc3[nH]ncc3c2c2c1CCCC2 group_label=inactive
compound=COc1cc(/C=C/C(=O)c2ccc(NC(=O)CSc3nnc(-c4cc(-c5ccccc5)nc5ccccc45)n3-c3ccccc3)cc2)cc(OC)c1OC group_label=inactive
compound=Clc1cccc(Nc2ncnc3ccc(-c4cncc(-n5cnnn5)c4)cc23)c1 group_label=inactive
compound=C#CCn1cnc2cnc(Nc3cccc(NC(=O)CCl)c3)nc21 group_label=active
compound="N#CC1=C(N)Oc2c(sc3c(Br)cccc23)C1c1ccccn1 (stereo unspecified)" group_label=inactive
compound=CCCCCCCCCCCCCCCCCCn1cc(COc2ccc(C=O)cc2)nn1 group_label=inactive
compound=CN1CCN(Cc2ccc(NC(=O)c3nc4ccc5[nH]ncc5c4c4c3CCCC4)cc2C(F)(F)F)CC1 group_label=active
compound=O=c1cc(N/N=C/c2ccc(F)cc2)c2cc(Cl)ccc2[nH]1 group_label=inactive
compound=Cc1cccc(Cc2cnc(NC(=O)CCCOc3ccc(Cl)cc3)s2)c1 group_label=active
compound=COc1cc2ncnc(Nc3ccc(F)c(Cl)c3)c2cc1OCC(=O)N1CCCCC1 group_label=inactive
compound="COc1c(O)c(O)cc2c3c(oc12)CC(c1ccc2c(c1)OCO2)CC3=O (stereo unspecified)" group_label=inactive
compound=O=C1/C(=C/c2ccc(-c3cccc(C(F)(F)F)c3)o2)SC(=S)N1CCc1ccc(O)cc1 group_label=inactive
compound=CCCc1cc(C(N)=S)ccn1 group_label=inactive
compound="COc1ccc(C(c2cc(OC)c(OC)c(OC)c2)n2ccnc2)cc1O (stereo unspecified)" group_label=active
compound=C=C1C(=O)O[C@H]2[C@H]1CC/C(COC(=O)NCc1ccc(Cn3c(=O)sn(CCCI)c3=O)cc1)=C\CC[C@@]1(C)O[C@@H]21 group_label=active

* * *

# System: MDA-MB-435 melanoma
# Assay name: NCI-60 one-dose screen, 48 h (100 = growth as untreated, 0 = no growth, -100 = all killed)
# Assay conditions: 10 µM unless noted
# Method: Growth inhibition of the MDA-MB-435 human Melanoma tumor cell line is measured as a screen for anti-cancer activity. Cells are grown in 96 well plates and exposed to the test compound for 48 hours. Compounds are tested at a single concentration, which is 10^-5 M for most compounds. The reported endpoint is percent growth (GI% or GIPRCNT), where numbers from 0 - 100% represent growth inhibition, and numbers from -100% - 0 represent cell death. […]
Compounds without any hit were thinned out: in the full panel of roughly 83,000, 20% have a hit.
List of growth values.
Endpoint label: growth (%)

compound=O=c1c(/C=C/c2ccco2)nnc2sc(Nc3ccc(Cl)cc3)nn12 assayed_target="MDA-MB-435 melanoma" reported_value=100
compound=COc1ccc(CCNC(=O)COc2cc3c(Nc4ccc(F)c(Cl)c4)ncnc3cc2OC)cc1OC assayed_target="MDA-MB-435 melanoma" reported_value=97.2
compound="CC1=C2[C@@H](CC1)[C@]1(C)O[C@@](C(C)C)(C[C@H]1OC(=O)CO)[C@H]2OC(=O)C1CC1c1ccccc1 (stereo partly drawn)" assayed_target="MDA-MB-435 melanoma" reported_value=96.7

* * *

# System: IGROV1 ovarian
# Assay name: NCI-60 one-dose screen, 48 h
# Assay conditions: 10 µM unless noted
The panel holds about 83,000 compounds, 20% with a hit somewhere; the sample as a whole holds those more often. Activity calls are given as the source filed them. How the source made its calls: active means growth percent below 10; inactive means the rest.
Outcome codes: 1.0 (active), 0.0 (inactive)

compound=CN(C)CCCn1c2c(c3ccc(N4CCNCC4)cc3c1=O)C(=O)c1ccccc1-2 assayed_target="IGROV1 ovarian" group_label=1.0
compound=COC1=CC(=O)C(OC)=C(O)C1=O assayed_target="IGROV1 ovarian" group_label=0.0
compound="Nc1nc(N)c2c(n1)NC(c1ccc(Cl)cc1)CC(c1cccc(Nc3ccncc3)c1)=N2 (stereo not given)" assayed_target="IGROV1 ovarian" group_label=0.0
compound="CN1CCCc2cc(/C=C3\\SC(=S)N(C(Cc4ccc(O)cc4)C(=O)O)C3=O)ccc21 (stereo not given)" assayed_target="IGROV1 ovarian" group_label=0.0
compound=Cc1ccc(Nc2nc(-c3cc(O)c(C)c(C)c3O)cs2)cc1 assayed_target="IGROV1 ovarian" group_label=0.0

* * *

# growth listing for each entry below
# System: UACC-62 melanoma
# Assay name: NCI-60 one-dose screen, 48 h (100 = growth as untreated, 0 = no growth, -100 = all killed)
# Assay conditions: 10 µM unless noted
This is part of a sample that, as a whole, favours compounds with a hit. Of some 83,000 tested, about 20% had one in any assay.
Endpoint label: growth (%)

molecule=COc1c(F)cc(-n2c(C(=O)N3CC(F)C3)cc3cccnc32)cc1F readout_units=% reported_value=101
molecule="C=C(CNCCO)[C@@H]1CC[C@]2(CO)CC[C@]3(C)[C@H](CC[C@@H]4[C@@]5(C)CCC(NCCc6ccc(O)cc6)C(C)(C)[C@@H]5CC[C@]43C)[C@@H]12 (some centres undefined)" readout_units=% reported_value=-81.5
molecule=Cc1cc(N2CCCCC2)nc(NCc2cc(Nc3ccnc4cc(Cl)ccc34)ccc2F)n1 readout_units=% reported_value=-80.7
molecule=CC1(C)C(N)=Nc2cc(OCCCCN3Cc4ccccc4C3)c(OCC3CC3)cc21 readout_units=% reported_value=82.7
molecule=COc1ccc(/C=C2/C(=O)N=C3N2NC(c2ccccc2)=CN3c2ccccc2)cc1 readout_units=% reported_value=94.2
molecule=Cc1ccc(/C=C2\COc3ccc(O)c(O)c3C2=O)cc1 readout_units=% reported_value=-19.7
molecule="CCCCCCCCCCCCCCCC(=O)O[C@@H]1[C@@H](O)[C@@H](O)C([C@H](NC(=O)[C@@H]2C[C@@H](CCC)CN2C)[C@H](C)Cl)O[C@@H]1SC (some centres undefined)" readout_units=% reported_value=104
molecule=N#C/C(=C\c1ccccc1Cl)c1cc2ccccc2[nH]1 readout_units=% reported_value=76.5
molecule=COc1ccccc1/C=C1\COc2ccc(O)c(O)c2C1=O readout_units=% reported_value=14.8

* * *

# System: OVCAR-5 ovarian
# Assay name: NCI-60 one-dose screen, 48 h (100 = growth as untreated, 0 = no growth, -100 = all killed)
# Assay conditions: 10 µM unless noted
This is part of a sample that, as a whole, favours compounds with a hit. Of some 83,000 tested, about 20% had one in any assay. The source made the active and inactive calls. Rule for the calls: active = growth percent below 10; inactive = the rest.
Endpoint label: growth

compound=COc1cc(F)c(/C=C/c2cc(/C=C/c3cc(OC)c(OC)cc3F)n(-c3cc(F)cc(F)c3)n2)cc1OC assayed_target="OVCAR-5 ovarian" reported_value="51.4% (inactive)"
compound=N#C/C(=N\Nc1ccc(Cl)cc1)C(=O)Nc1cc(-c2ccccc2)nn1-c1ccccc1 assayed_target="OVCAR-5 ovarian" reported_value="81.6% (inactive)"
compound=COc1cc(C=O)ccc1Oc1ccc([N+](=O)[O-])cc1[N+](=O)[O-] assayed_target="OVCAR-5 ovarian" reported_value="109% (inactive)"
compound=O=C(/C=C/c1cccs1)Nc1ncc(Cc2ccc(Cl)c(Cl)c2)s1 assayed_target="OVCAR-5 ovarian" reported_value="74.1% (inactive)"
compound="N#CC(Cc1cccc2ccccc12)c1cc2ccccc2[nH]1 (stereo not given)" assayed_target="OVCAR-5 ovarian" reported_value="89% (inactive)"
compound="Cc1nc2sc(C(=O)Nc3cccc4ncccc34)c(N)c2cc1C(C)O (stereo not given)" assayed_target="OVCAR-5 ovarian" reported_value="96.5% (inactive)"
compound=CCOC(=O)c1nc2c3ccccc3cnn2c1C(=O)c1ccc(OC)cc1 assayed_target="OVCAR-5 ovarian" reported_value="106% (inactive)"
compound="O=C(/C=C/C12c3ccccc3C(c3ccccc31)C1C(=O)NC(=O)C12)c1ccncc1 (stereo not given)" assayed_target="OVCAR-5 ovarian" reported_value="13.7% (inactive)"
compound=COc1ccc2c(c1)oc1c(C)c3c(c(C)c12)C(=O)N(Nc1ccccc1)C3=O assayed_target="OVCAR-5 ovarian" reported_value="92% (inactive)"
compound=COc1ccc(/C=C/C(=O)c2cc3c(N)c(C(=O)Nc4ccccc4Cl)sc3nc2C)cc1 assayed_target="OVCAR-5 ovarian" reported_value="79% (inactive)"
